# study_system: GABA-A receptor; alpha-3/beta-3/gamma-2 (Homo sapiens, UniProt P18507+P28472+P34903)
# experimental_protocol: Displacement of [3H]flumazenil from GABAA alpha-3-beta-3-gamma-2 receptor
Response field label takes Satisfied when Ki is strictly below 300 nM and Not satisfied in all other cases.

[
  {
    "compound": "Cc1cc(Cc2nc3n(n2)Cc2c(C)ncn2-c2ccc(Br)cc2-3)on1",
    "answer_label": "Satisfied"
  },
  {
    "compound": "Cc1ncn2c1Cn1nc(CN3CCCC3=O)nc1-c1cc(Br)ccc1-2",
    "answer_label": "Not satisfied"
  },
  {
    "compound": "Cc1noc(Cc2nc3n(n2)Cc2c(C)ncn2-c2ccc(Br)cc2-3)n1",
    "answer_label": "Satisfied"
  },
  {
    "compound": "Cc1nc2n(n1)Cc1c(C)ncn1-c1ccc(Br)cc1-2",
    "answer_label": "Not satisfied"
  },
  {
    "compound": "Cc1cc(-c2nnc3c4ccccc4c(OCc4ccccn4)nn23)no1",
    "answer_label": "Satisfied"
  },
  {
    "compound": "Cc1ncn2c1Cn1nc(C(C)(C)C)nc1-c1cc(Br)ccc1-2",
    "answer_label": "Not satisfied"
  }
]

====

Let's look at some compounds and their measured logD.
# experimental_protocol: Lipophilicity, log D at pH 7.4
# Type: physicochemical
# study_conditions: buffer
quantity_kind: logD

[
  {
    "compound": "Cc1ncn2c1Cn1nc(CN3CCCC3=O)nc1-c1cc(Br)ccc1-2",
    "assay_result": 1.5
  },
  {
    "compound": "Cc1cc(Cc2nc3n(n2)Cc2c(C)ncn2-c2ccc(Br)cc2-3)on1",
    "assay_result": 2.6
  },
  {
    "compound": "Cc1cc(Cc2nc3n(n2)Cc2c(C)ncn2-c2ccc(Cl)cc2-3)on1",
    "assay_result": 2.3
  }
]

====

Let's look at some compounds and their measured Vd.
# experimental_protocol: Volume of distribution at steady state in rat
# Format: ADME, organism-based
# study_conditions: in vivo, read-out: Vdss

[
  {
    "compound": "Cc1ncn2c1Cn1nc(CN3CCCC3=O)nc1-c1cc(Br)ccc1-2",
    "Vd": "1.3 L/kg"
  },
  {
    "compound": "Cc1cc(Cc2nc3n(n2)Cc2c(C)ncn2-c2ccc(Cl)cc2-3)on1",
    "Vd": "1.8 L/kg"
  },
  {
    "compound": "Cc1cc(Cc2nc3n(n2)Cc2c(C)ncn2-c2ccc(Br)cc2-3)on1",
    "Vd": "4.6 L/kg"
  }
]

====

Let's look at some molecules and their measured Efficacy.
# study_system: GABA-A receptor; alpha-5/beta-3/gamma-2 (Homo sapiens) (UniProt P18507+P28472+P31644)
# experimental_protocol: Inverse agonist activity at GABAA alpha-5-beta-3-gamma-2 receptor assessed as modulation of GABA-induced chloride ion flux by electrophysiology assay relative to GABA
# Type: functional

[
  {
    "compound": "Cc1nc2n(n1)Cc1c(C)ncn1-c1ccc(Br)cc1-2",
    "study_system": "GABA-A receptor; alpha-5/beta-3/gamma-2 (Homo sapiens) (UniProt P18507+P28472+P31644)",
    "Efficacy [%]": -17
  },
  {
    "compound": "Cc1cc(Cc2nc3n(n2)Cc2c(C)ncn2-c2ccc(OC(F)(F)F)cc2-3)on1",
    "study_system": "GABA-A receptor; alpha-5/beta-3/gamma-2 (Homo sapiens) (UniProt P18507+P28472+P31644)",
    "Efficacy [%]": -20
  },
  {
    "compound": "COc1ccc2c(c1)-c1nc(Cc3cc(C)no3)nn1Cc1c(C)ncn1-2",
    "study_system": "GABA-A receptor; alpha-5/beta-3/gamma-2 (Homo sapiens) (UniProt P18507+P28472+P31644)",
    "Efficacy [%]": -13
  },
  {
    "compound": "Cc1noc(Cc2nc3n(n2)Cc2c(C)ncn2-c2ccc(Br)cc2-3)n1",
    "study_system": "GABA-A receptor; alpha-5/beta-3/gamma-2 (Homo sapiens) (UniProt P18507+P28472+P31644)",
    "Efficacy [%]": -18
  },
  {
    "compound": "Cc1cc(-c2nnc3c4ccccc4c(OCc4ccccn4)nn23)no1",
    "study_system": "GABA-A receptor; alpha-5/beta-3/gamma-2 (Homo sapiens) (UniProt P18507+P28472+P31644)",
    "Efficacy [%]": -41
  },
  {
    "compound": "Cc1ncn2c1Cn1nc(CC3CC3)nc1-c1cc(Br)ccc1-2",
    "study_system": "GABA-A receptor; alpha-5/beta-3/gamma-2 (Homo sapiens) (UniProt P18507+P28472+P31644)",
    "Efficacy [%]": -12
  },
  {
    "compound": "Cc1cc(Cc2nc3n(n2)Cc2c(C)ncn2-c2ccc(Cl)cc2-3)on1",
    "study_system": "GABA-A receptor; alpha-5/beta-3/gamma-2 (Homo sapiens) (UniProt P18507+P28472+P31644)",
    "Efficacy [%]": -18
  },
  {
    "compound": "Cc1cc(Cc2nc3n(n2)Cc2c(C)ncn2-c2ccc(Br)cc2-3)on1",
    "study_system": "GABA-A receptor; alpha-5/beta-3/gamma-2 (Homo sapiens) (UniProt P18507+P28472+P31644)",
    "Efficacy [%]": -27
  },
  {
    "compound": "Cc1ccc2c(c1)-c1nc(Cc3cc(C)no3)nn1Cc1c(C)ncn1-2",
    "study_system": "GABA-A receptor; alpha-5/beta-3/gamma-2 (Homo sapiens) (UniProt P18507+P28472+P31644)",
    "Efficacy [%]": -16
  },
  {
    "compound": "Cc1ncn2c1Cn1ncnc1-c1cc(Br)ccc1-2",
    "study_system": "GABA-A receptor; alpha-5/beta-3/gamma-2 (Homo sapiens) (UniProt P18507+P28472+P31644)",
    "Efficacy [%]": -42
  },
  {
    "compound": "Cc1ncn2c1Cn1nc(CN3CCCC3=O)nc1-c1cc(Br)ccc1-2",
    "study_system": "GABA-A receptor; alpha-5/beta-3/gamma-2 (Homo sapiens) (UniProt P18507+P28472+P31644)",
    "Efficacy [%]": -34
  },
  {
    "compound": "Cc1cc(Cc2nc3n(n2)Cc2c(C)ncn2-c2ccc(O)cc2-3)on1",
    "study_system": "GABA-A receptor; alpha-5/beta-3/gamma-2 (Homo sapiens) (UniProt P18507+P28472+P31644)",
    "Efficacy [%]": -7
  },
  {
    "compound": "COCc1nc2n(n1)Cc1c(C)ncn1-c1ccc(Br)cc1-2",
    "study_system": "GABA-A receptor; alpha-5/beta-3/gamma-2 (Homo sapiens) (UniProt P18507+P28472+P31644)",
    "Efficacy [%]": -3
  }
]

====

# experimental_protocol: Oral bioavailability in rat
# Format: ADME, organism-based
# study_conditions: in vivo
quantity_kind: bioavailability (%)

[
  {
    "compound": "Cc1cc(Cc2nc3n(n2)Cc2c(C)ncn2-c2ccc(Br)cc2-3)on1",
    "assay_result": 34
  },
  {
    "compound": "Cc1cc(Cc2nc3n(n2)Cc2c(C)ncn2-c2ccc(Cl)cc2-3)on1",
    "assay_result": 44
  },
  {
    "compound": "Cc1ncn2c1Cn1nc(CN3CCCC3=O)nc1-c1cc(Br)ccc1-2",
    "assay_result": 32
  }
]

====

# study_system: GABA-A receptor; alpha-3/beta-3/gamma-2 (Homo sapiens, UniProt P18507+P28472+P34903)
# Sequence (P18507 whole entry): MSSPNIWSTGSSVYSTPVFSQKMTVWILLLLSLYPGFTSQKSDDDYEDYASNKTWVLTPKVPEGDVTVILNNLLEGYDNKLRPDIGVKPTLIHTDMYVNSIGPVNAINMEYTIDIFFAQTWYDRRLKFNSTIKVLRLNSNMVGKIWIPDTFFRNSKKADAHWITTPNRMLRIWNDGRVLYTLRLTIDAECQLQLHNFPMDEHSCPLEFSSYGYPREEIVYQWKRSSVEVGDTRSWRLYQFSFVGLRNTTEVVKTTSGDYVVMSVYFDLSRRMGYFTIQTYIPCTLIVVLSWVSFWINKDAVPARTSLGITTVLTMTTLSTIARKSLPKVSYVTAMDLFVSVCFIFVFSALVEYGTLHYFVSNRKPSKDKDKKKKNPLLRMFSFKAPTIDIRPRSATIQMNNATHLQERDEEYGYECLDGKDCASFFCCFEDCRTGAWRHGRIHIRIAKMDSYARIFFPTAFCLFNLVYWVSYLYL
# Sequence (P28472 whole entry): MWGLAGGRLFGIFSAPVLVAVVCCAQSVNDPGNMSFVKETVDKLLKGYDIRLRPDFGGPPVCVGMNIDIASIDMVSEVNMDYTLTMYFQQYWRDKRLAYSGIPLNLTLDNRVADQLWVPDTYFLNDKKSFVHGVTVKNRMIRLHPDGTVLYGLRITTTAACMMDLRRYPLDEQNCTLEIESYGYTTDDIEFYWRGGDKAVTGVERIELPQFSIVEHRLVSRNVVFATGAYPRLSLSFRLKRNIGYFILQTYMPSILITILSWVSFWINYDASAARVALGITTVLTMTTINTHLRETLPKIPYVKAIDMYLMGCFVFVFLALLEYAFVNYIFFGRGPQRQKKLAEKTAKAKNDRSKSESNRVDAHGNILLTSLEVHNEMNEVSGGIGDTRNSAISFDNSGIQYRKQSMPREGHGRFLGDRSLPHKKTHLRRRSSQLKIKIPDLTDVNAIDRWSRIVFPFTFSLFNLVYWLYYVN
# Sequence (P34903 whole entry): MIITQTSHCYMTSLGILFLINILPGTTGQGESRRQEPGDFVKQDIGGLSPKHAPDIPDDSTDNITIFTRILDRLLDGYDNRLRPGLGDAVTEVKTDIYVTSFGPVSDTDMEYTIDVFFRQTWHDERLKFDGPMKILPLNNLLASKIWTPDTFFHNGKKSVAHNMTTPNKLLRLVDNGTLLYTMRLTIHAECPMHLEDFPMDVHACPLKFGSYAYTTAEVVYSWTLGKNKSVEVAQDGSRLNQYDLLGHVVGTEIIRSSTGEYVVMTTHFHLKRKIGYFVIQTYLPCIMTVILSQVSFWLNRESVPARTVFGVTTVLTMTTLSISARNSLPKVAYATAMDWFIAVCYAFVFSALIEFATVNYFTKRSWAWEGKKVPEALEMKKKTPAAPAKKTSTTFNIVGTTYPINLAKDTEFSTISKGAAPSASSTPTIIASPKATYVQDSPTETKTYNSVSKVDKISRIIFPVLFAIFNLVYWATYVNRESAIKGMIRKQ
# experimental_protocol: Displacement of [3H]flumazenil from GABAA alpha-3-beta-3-gamma-2 receptor
pKi: −log10 of the molar value.
Let's look at some compounds and their measured pKi.
quantity_kind: pKi

[
  {
    "compound": "Cc1ncn2c1Cn1ncnc1-c1cc(Br)ccc1-2",
    "assay_result": 6.88
  },
  {
    "compound": "Cc1ncn2c1Cn1nc(CC3CC3)nc1-c1cc(Br)ccc1-2",
    "assay_result": 6.39
  },
  {
    "compound": "COCc1nc2n(n1)Cc1c(C)ncn1-c1ccc(Br)cc1-2",
    "assay_result": 6.23
  }
]
